Assay: Critical micelle concentration (CMC) by dye solubilization (Orange OT or DPH)
Type: physicochemical
Settings: determined by DPH (diphenylhexatriene) or Orange OT
ENDPOINT: CMC (%)

>>> test_value("CCCCC(CCCC)(CC(=O)NC(COC1OC(CO)C(O)C(O)C1O)COC1OC(CO)C(O)C(O)C1O)c1ccc(-c2ccccc2)cc1 (stereo not shown)")
0.01

P. CCCCC(CCCC)(CC(=O)NC(CO[C@@H]1O[C@H](CO)[C@@H](O)[C@H](O)[C@H]1O)CO[C@@H]1O[C@H](CO)[C@@H](O)[C@H](O)[C@H]1O)c1ccc(I)cc1
Q. CCCCC(CC(=O)NC(CO[C@@H]1O[C@H](CO)[C@@H](O)[C@H](O)[C@H]1O)CO[C@@H]1O[C@H](CO)[C@@H](O)[C@H](O)[C@H]1O)(C1CCCCC1)C1CCCCC1
Looking at P and Q , which one comes out lower in CMC (%) terms? Your answer should be the label of the entry you select. Q
(Q: 0.04%, P: 0.07%)
